Experiment: In vivo pharmacokinetic study of GK-667 in rabbits, noncompartmental analysis
Design: species or system rabbit
Settings: rabbits n = 6, GK-667 5 mg/kg i.v., NCA
OUTCOME_MEASURE: Cmax (nM)
Numbers only, in nM.

Recorded result, C[C@H]([C@H](C)N(CC(N)=O)CC(=O)O)N(CC(N)=O)CC(=O)O [ICRF-193met] , Cmax: 830

---

Assay: In vivo pharmacokinetic study of GK-667 in rabbits, noncompartmental analysis
Design: species or system rabbit
Details: male, New Zealand White, rabbit, plasma, iv; rabbits n = 6, GK-667 5 mg/kg i.v., NCA
OUTCOME_MEASURE: MRT (h)
Give bare numbers, in h.

So for C[C@H]([C@H](C)N(CC(N)=O)CC(=O)O)N(CC(N)=O)CC(=O)O [ICRF-193met] , the logged MRT turned out to be 2.6

Reference source for all entries: paper PMC7904827
